Origin of values: patent US20170066831A1

Target: T1, human ST2L extracellular domain with C-terminal His6 tag (human, UniProt Q01638 19-328)
T1 construct: also called huST2L-ECD; ST2L-ECD
T1 sequence: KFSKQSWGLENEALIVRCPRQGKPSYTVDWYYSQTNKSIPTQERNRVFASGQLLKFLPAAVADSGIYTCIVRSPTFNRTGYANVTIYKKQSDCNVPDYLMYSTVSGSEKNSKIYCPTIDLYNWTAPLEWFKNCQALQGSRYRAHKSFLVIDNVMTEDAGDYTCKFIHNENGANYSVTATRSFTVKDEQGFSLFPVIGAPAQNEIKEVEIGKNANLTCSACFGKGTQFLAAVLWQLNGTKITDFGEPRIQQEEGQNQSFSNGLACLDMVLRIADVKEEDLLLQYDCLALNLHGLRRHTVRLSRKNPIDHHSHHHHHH
Test: SPR, mAb captured, ST2L-ECD in solution
Please provide measured kon for the entries that follow.

// recorded kon for ST2M49 (antibody, V domains shown, Phage-derived Fab converted to IgG) VH: EVQLVQSGAEVKKPGESLKISCKGSGYSFTSYWIGWVRQMPGKGLEWMGIIYPGDSYTRYSPSFQGQVTISADKSISTAYLQWSSLKASDTAMYYCARIGGMFDYWGQGTLVTVSS VL: EIVLTQSPATLSLSPGERATLSCRASQSVANALAWYQQKPGQAPRLLIYKASNRATGIPARFSGSGSGTDFTLTISSLEPEDFAVYYCQQYYGWPITFGQGTKVEIK : 1.59e+06 M⁻¹ s⁻¹

The recorded kon for entry STLM15 (antibody, human IgG2, V domains shown, Mouse hybridoma C2244 cloned into human IgG2 background (STLM15); also called C2244) VH: EVQLQESGPGLVKPSQSLSLTCTVTGFSITSDYAWNWIRQFPGSKLEWMGFISYSGDTSFNPSLKSRISVTRDTSKNQFFLQLNSVTTEDTATYYCASYDGYSFDYWGQGTTLTVSS VL: DIVLTQSPASLAISLGQRATISCRASKSVSTSGSSYMFWYQQKPGQPPKLLIYLASNLESGVPARFSGSGSGTDFTLNIHPVEEEDAAAYYCQHSREIPYTFGGGTKLEIK equals 1.02e+06 M⁻¹ s⁻¹

Quick note, kon for STLM62 (antibody, human IgG2, V domains shown, Mouse hybridoma C2494 cloned into human IgG2 background (STLM62); also called C2494) VH: EVQLQQSVAELVRPGASVKLSCTASAFNIKDDYMHWVKQRPEQGLEWIGRIDPAIGNTEYAPKFQDKATMTADTSSNTAYLQLSSLTSEDTAVYYCALGDFYAMDYWGQGTSVTVSS VL: ETTVTQSPASLSVATGEKVTIRCITNTDIDDVIHWYQQKPGEPPKLLISEGNTLRPGVPSRFSSSGYGTDFVFTIENTLSEDVADYYCLQSDNMLTFGAGTKLELK landed at 4.26e+06 M⁻¹ s⁻¹
